biological target: human KEAP1 (N-term, residues 321-609) (Homo sapiens, UniProt Q14145); experiment: biochemical;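 also: fluorescence polarization competition assay of Kelch domain binding to NRF2, 12-point 1:3 dilution series from 10 µM, read after 1 h at room temperature, floor 10 nM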
Sequence (Q14145 321-609): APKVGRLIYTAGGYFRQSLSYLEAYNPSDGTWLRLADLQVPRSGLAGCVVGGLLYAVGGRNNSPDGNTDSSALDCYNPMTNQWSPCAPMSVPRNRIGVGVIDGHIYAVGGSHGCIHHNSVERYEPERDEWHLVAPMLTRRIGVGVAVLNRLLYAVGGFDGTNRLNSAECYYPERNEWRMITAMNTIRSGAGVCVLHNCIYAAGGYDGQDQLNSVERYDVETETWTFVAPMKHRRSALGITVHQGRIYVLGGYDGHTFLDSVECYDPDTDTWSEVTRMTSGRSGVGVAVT
pIC50: −log10 of the molar value.
measured-quantity: pIC50

compound	assay-system	reported-value
Cn1c(COc2ccc(Cl)c3c2[C@@H](CN2CC4(CC4)CC2=O)N(C(=O)[C@@H]2CCCC[C@]2(C)C(=O)O)CC3)cccc1=O	human KEAP1 (N-term, residues 321-609) (Homo sapiens, UniProt Q14145)	8.28

(P) Cn1nnc(COc2ccc(Cl)c3c2[C@@H](CN2CCCC2=O)N(C(=O)[C@@H]2CCC[C@@H]2C(=O)O)CC3)c1C(F)F
(Q) CC1CCN(C[C@@H]2c3c(OCc4cn(C(C)C)nn4)ccc(Br)c3CCN2C(=O)[C@@H]2CCCC[C@@H]2C(=O)O)C1=O (single isomer, unassigned) [Example 73]
Qu. Lower value for measured pIC50? Options: P , Q Output the label that corresponds to your choice.
Ans. Q
(Q: 7.80, P: 8.30)
